Source listed as ChEMBL document CHEMBL3774336.

tested_on: Mineralocorticoid receptor (Homo sapiens, UniProt P08235, C808S)
Sequence (P08235 whole entry C808S, the tested form may be a part): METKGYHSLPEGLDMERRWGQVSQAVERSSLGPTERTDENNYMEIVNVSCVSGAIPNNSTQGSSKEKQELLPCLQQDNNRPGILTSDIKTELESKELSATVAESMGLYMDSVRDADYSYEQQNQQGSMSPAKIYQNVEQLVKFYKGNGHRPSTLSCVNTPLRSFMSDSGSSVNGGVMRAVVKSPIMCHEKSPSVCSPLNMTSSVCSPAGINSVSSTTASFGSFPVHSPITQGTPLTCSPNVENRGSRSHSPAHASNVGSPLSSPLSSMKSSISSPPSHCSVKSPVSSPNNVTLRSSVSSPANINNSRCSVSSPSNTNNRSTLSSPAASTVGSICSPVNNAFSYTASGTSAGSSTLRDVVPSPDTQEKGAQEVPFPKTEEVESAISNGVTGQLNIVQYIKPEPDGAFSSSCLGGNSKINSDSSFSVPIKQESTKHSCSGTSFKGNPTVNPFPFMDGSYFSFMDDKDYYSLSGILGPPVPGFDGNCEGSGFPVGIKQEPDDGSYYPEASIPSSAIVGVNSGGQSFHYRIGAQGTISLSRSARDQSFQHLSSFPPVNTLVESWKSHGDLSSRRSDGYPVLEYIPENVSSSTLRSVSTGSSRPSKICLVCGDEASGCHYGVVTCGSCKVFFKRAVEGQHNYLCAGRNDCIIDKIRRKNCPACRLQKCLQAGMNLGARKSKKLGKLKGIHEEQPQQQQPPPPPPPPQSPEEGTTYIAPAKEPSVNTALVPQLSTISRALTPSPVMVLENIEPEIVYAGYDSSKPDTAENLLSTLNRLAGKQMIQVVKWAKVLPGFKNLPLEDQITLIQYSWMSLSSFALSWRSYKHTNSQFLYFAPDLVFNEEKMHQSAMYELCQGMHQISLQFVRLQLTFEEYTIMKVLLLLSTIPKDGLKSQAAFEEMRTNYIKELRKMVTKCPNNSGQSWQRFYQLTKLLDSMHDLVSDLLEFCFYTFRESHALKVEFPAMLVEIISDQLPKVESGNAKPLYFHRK
protocol_notes: Agonist activity against 6xHis-MBP-fused human MR LBD domain (732 to 984 amino acid residues) C808S mutant expressed in Escherichia coli BL21(DE3) assessed as receptor activation after 16 hrs by luciferase assay

| line_notation | tested_on | EC50 [nM] |
| --- | --- | --- |
| O=C1COc2ccc(/C=C3\c4ccccc4COc4cc(F)ccc43)cc2N1 | Mineralocorticoid receptor (Homo sapiens, UniProt P08235, C808S) | 4 |

----------
tested_on: 5-hydroxytryptamine receptor 2B (Homo sapiens) (UniProt P41595)
Sequence (P41595 whole entry): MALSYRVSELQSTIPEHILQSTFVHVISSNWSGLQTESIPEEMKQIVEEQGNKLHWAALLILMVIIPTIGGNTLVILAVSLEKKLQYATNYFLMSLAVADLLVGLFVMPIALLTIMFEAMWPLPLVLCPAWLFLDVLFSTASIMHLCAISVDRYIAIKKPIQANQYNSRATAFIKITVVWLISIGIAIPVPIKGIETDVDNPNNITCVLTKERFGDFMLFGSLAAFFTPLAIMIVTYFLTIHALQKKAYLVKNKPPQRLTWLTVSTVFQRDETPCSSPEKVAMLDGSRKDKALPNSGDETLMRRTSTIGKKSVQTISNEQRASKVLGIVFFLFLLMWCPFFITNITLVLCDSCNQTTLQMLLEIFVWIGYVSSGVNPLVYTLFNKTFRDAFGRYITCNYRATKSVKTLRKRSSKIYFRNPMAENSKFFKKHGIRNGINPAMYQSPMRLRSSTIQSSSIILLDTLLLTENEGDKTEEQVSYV
protocol_notes: Inhibition of serotonin 5H2B receptor (unknown origin) at 10 uM
# binarize inhibition: threshold 70% inclusive, high side class 1, low side class 0

| molecule | class_label |
| --- | --- |
| O=C1COc2ccc(/C=C3\c4ccccc4COc4cc(F)ccc43)cc2N1 | class 0 |
| CN1CCC2(CC1)C(=O)Nc1cc(/C=C3\c4ccccc4COc4cc(F)ccc43)ccc12 | class 1 |
| O=C1COc2ccc(CN3c4ccccc4COc4cc(F)ccc43)cc2N1 | class 1 |
| O=C1COc2ccc(S(=O)(=O)N3c4ccccc4COc4cc(F)ccc43)cc2N1 | class 0 |
| CN(C)CC(=O)N1CCC2(CC1)C(=O)Nc1cc(/C=C3\c4ccccc4COc4cc(F)ccc43)ccc12 | class 1 |
| O=C(O)CCN1CCC2(CC1)C(=O)Nc1cc(/C=C3\c4ccccc4COc4cc(F)ccc43)ccc12 | class 0 |
| O=c1[nH]c2cc(/C=C3\c4ccccc4COc4cc(F)ccc43)ccc2n1[C@@H]1C[C@@H]2COCCN2C1 | class 0 |
| C[N+]1([O-])CCC2(CC1)C(=O)Nc1cc(/C=C3\c4ccccc4COc4cc(F)ccc43)ccc12 (centres undefined) | class 0 |
